Subject Of Test: T1, RecD2 (His-tagged) (Bacillus subtilis, UniProt O34481 1-798)
T1 sequence: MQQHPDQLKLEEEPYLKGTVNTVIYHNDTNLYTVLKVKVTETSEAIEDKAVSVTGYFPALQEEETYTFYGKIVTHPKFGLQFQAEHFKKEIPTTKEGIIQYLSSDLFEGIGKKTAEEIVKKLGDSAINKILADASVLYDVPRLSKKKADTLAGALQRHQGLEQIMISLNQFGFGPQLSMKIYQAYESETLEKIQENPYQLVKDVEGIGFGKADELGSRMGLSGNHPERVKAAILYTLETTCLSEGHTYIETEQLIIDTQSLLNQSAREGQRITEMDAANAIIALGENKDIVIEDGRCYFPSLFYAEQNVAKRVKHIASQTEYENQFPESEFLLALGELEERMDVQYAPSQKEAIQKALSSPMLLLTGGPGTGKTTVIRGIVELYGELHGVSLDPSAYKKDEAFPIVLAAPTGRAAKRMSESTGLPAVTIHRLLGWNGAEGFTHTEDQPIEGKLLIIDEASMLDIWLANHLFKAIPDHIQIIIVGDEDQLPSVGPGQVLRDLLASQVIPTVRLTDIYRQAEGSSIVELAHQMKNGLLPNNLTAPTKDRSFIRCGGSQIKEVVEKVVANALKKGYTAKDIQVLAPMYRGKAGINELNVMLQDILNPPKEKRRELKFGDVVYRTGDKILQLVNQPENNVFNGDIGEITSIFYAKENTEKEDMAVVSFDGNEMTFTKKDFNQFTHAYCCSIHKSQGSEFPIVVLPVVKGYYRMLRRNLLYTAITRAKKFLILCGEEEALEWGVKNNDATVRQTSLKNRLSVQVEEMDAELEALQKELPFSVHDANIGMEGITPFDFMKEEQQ
Experiment Notes: EMSA; 2 mM MgCl2, 1 mM ATPgS; EMSA: 0.25 nM 32P-DNA, buffer B (composition not in material), 1 mM ATPgS, 2 mM MgCl2 (or 10 mM), 15 min 37 C, then 0.05% glutaraldehyde 15 min 37 C, 8% PAGE; single-molecule: buffer A (composition not in material)
Test Conditions: protein: recombinant; tags: 6xHis (not removed); label: 32P
This listing pairs binders with measured apparent K (half saturation).
Measurement Kind: apparent K (half saturation) (nM)

[[record]]
binder = "CTAATTTACGCTAACCTACGATGAGCAGCC (ssDNA) [30-nt random ssDNA (22-M-30)]"
measurement_kind = "apparent K (half saturation)"
endpoint_value = 212

[[record]]
binder = "80-nt random ssDNA (17-M-80) (ssDNA) DNA: ACGGCCTAGAACGGCCTAGAACGGCCTAGATCGTGAACCTGCAGGTAAGGGGCTGCTCATCGTAGGTTAGCGTAAATTAG"
measurement_kind = "apparent K (half saturation)"
endpoint_value = 11.1

[[record]]
binder = "60-nt random ssDNA (17-M-60) (ssDNA) DNA: ACGGCCTAGATCGTGAACCTGCAGGTAAGGGGCTGCTCATCGTAGGTTAGCGTAAATTAG"
measurement_kind = "apparent K (half saturation)"
endpoint_value = 13.5

